These data points were gathered from ChEMBL document CHEMBL1134901.

# Protocol Notes: Area under curve in dogs administered perorally (5 mg/kg) and intravenously (2 mg/kg)
# Type: ADME, organism-based, Canis lupus familiaris
# Stated Conditions: dog, in vivo
Attribute Measured: AUC (µM·h)
Express your answer in µM·h, writing the number without its unit.

Q: Respond only with AUC recorded for `CC(C)(c1cc2cnccc2o1)N1CCN(C[C@@H](O)C[C@@H](Cc2ccccc2)C(=O)N[C@H]2c3ccccc3OC[C@H]2O)[C@H](C(=O)NCC(F)(F)F)C1`
Ans: 18.8

----------
# Protocol Notes: Intrinsic clearance in human liver microsomes
# Assay type: ADME, Microsome
Here, each record is paired with measured CLint scaled data.
Express your answer in mL/min/kg, writing the number without its unit.

Q: Respond only with CLint scaled recorded for `CC(C)(c1cc2cnccc2o1)N1CCN(C[C@@H](O)C[C@@H](Cc2ccccc2)C(=O)N[C@H]2c3ccccc3OC[C@H]2O)[C@H](C(=O)NCC(F)(F)F)C1`
Ans: 22

More entries:
Q: Respond only with CLint scaled recorded for `CC(C)(C)NC(=O)[C@@H]1CN(C(C)(C)c2cc3cnccc3o2)CCN1C[C@@H](O)C[C@@H](Cc1ccccc1)C(=O)N[C@H]1c2ccccc2OC[C@H]1O`
Ans: 34
